# Test system: Mycobacterium tuberculosis strain H37Rv
# assayExplanation: Activity test for Mycobacterium tuberculosis (MIC, liquid medium, 96-well microplate)
# Type: cell-based
# assaySetup: Mycobacterium tuberculosis, liquid medium, 37° C., read-out: Minimal inhibitory concentration for H37Rv
measurementType: MIC (mg/L)
Your answer should be a plain number; it is taken to be in mg/L.

Here is how some compounds turned out for MIC.
O=C(CCN1CCC(Oc2ccc(OC(F)(F)F)cc2)CC1)N[C@@H]1COc2nc([N+](=O)[O-])cn2C1
0.06
O=[N+]([O-])c1cn2c(n1)OC[C@@H](OCc1ccc(OC(F)(F)F)cc1)C2 [PA-824, reference compound]
0.12
CC(C)Oc1ccc(OC2CCN(CC(=O)N[C@@H]3COc4nc([N+](=O)[O-])cn4C3)CC2)cc1
0.06
O=C(CN1CCN(Cc2ccc(OC(F)(F)F)cc2)CC1)N[C@@H]1COc2nc([N+](=O)[O-])cn2C1
0.12
CC[C@@H](CO)NCCN[C@@H](CC)CO [ethambutol, reference compound]
0.5
O=C(CN1CCC(Oc2ccc(OC(F)(F)F)c(F)c2)CC1)N[C@@H]1COc2nc([N+](=O)[O-])cn2C1
0.06
O=C(CN1CCC(Oc2ccc(OC(F)(F)F)cc2)CC1)N[C@@H]1COc2nc([N+](=O)[O-])cn2C1
0.03
O=C(CN1CCC(Oc2ccc(OCCOC3CC3)cc2)CC1)N[C@@H]1COc2nc([N+](=O)[O-])cn2C1
0.03

Next:
Reported MIC for `O=C(CCCN1CC(Oc2ccc(OC(F)(F)F)cc2)C1)N[C@@H]1COc2nc([N+](=O)[O-])cn2C1` : what is it?
0.03

Source of measurements: patent US8563547B2
